observationType: melting point

Worked set:
Lookup: Form field: reported melting point of Cc1cc2c(cc1O)C(C)(C)CC1(CC(C)(C)c3cc(OCCCn4ccnc4)c(C)cc3O1)O2 (racemic)
Found: 209 to 211 °C

Lookup: Form field: reported melting point of C=CCc1c(O)c(C)cc2c1C(C)(C)CC1(CC(C)(C)c3cc(O)c(C)cc3O1)O2 (racemic)
Found: 102 to 104 °C

Lookup: Form field: reported melting point of Cc1cc2c(cc1O)C(C)(C)CC1(CC(C)(C)c3cc(OCC(=O)OCc4ccccc4)c(C)cc3O1)O2 (racemic)
Found: 60 to 65 °C

Lookup: Form field: reported melting point of Cc1cc2c(cc1O)C(C)(C)CC1(CC(C)(C)c3cc(OCC(=O)O[C@@H]4C[C@H](C)CC[C@H]4C(C)(C)c4ccccc4)c(C)cc3O1)O2 (mixture of isomers)
Found: 88 to 93 °C

Lookup: Form field: reported melting point of Cc1cc2c(cc1O)C(C)(C)CC1(CC(C)(C)c3cc(OCCCCO)c(C)cc3O1)O2 (racemic)
Found: 235 to 236 °C

More entries:
Lookup: Form field: reported melting point of Cc1cc2c(cc1O)C(C)(C)CC1(CC(C)(C)c3cc(OCCO)c(C)cc3O1)O2 (racemic)
Found: 186 to 188 °C

Lookup: Form field: reported melting point of Cc1cc2c(cc1O)C(C)(C)CC1(CC(C)(C)c3cc(OC(C)(C)CO)c(C)cc3O1)O2 (racemic)
Found: 188 to 189 °C
